System: transactivating tegument protein VP16 (Human herpesvirus 1)
Assay: VP16 transactivation reporter inhibitors, counter-screen for SRC2 inhibitor project, cell-based, luminescence, single concentration (AID 652007)
Details: cell-based VP16 transactivation luciferase reporter, at 8.9 µM, active compounds read high
Decision: inhibition compared against 10%; not below it gives Yes, below it gives No.

COc1ccc(CN2Cc3cnnn3-c3ccccc3C2C#N)cc1 (stereo unspecified); Yes
COc1cc(CC(C)N)c(OC)cc1I (stereo unspecified); No
O=C(c1ccc(Cl)cc1)C1CCCN(Cc2cccc3ncccc23)C1 (stereo unspecified); Yes
CN1C(=O)C[N+]([O-])=C(c2ccccc2)c2cc(Cl)ccc21; Yes
O=C1NC(=O)N(Cc2ccco2)C(=O)/C1=C/C=C/c1ccco1; No

Next item in the queue.
Q: In plain terms: is recorded inhibition at least 10% for C=Cc1cc(OC)c2c(c1)c(=O)oc1c2cc(OC)c2c(O)ccc(C3OC(C)C(O)C(C)(O)C3O)c21 (stereo unspecified) ?
A: Yes

====

Assay: StAR promoter reporter inhibitors, counter-screen for LRH-1 inverse agonist project, cell-based, luminescence, high throughput (AID 651611)
Details: StAR promoter luciferase reporter counterscreen, at 3.6 µM, active compounds read high
Returns YES if the recorded inhibition is greater than or equal to 90%, and NO otherwise.

Sample answers from the record:
COc1ccc2c(c1)/C(=C/c1cnc[nH]1)C(=O)N2; NO
O=C1NC2C(O)C(O)C(O)C(O)C2c2cc3c(c(O)c21)OCO3 (stereo not given); YES
CCCOC(=O)c1ccc(-[n+]2c(-c3ccccc3)cc(-c3ccccc3)cc2-c2ccccc2)cc1; NO

Consider the additional compound presented here.
Q: Say whether COC1=C(C)C(=O)C2=C(C1=O)C(CO)N1C(C#N)C3CC4C(C1C2N1CCOC41)N3C (stereo not given) shows inhibition of 90% or more.
A: NO

====

Target: Protein phosphatase methylesterase 1 (Homo sapiens)
Assay: PME-1 inhibitor activity retest, confirmation, biochemical, fluorescence polarization, FP-Rh probe, triplicate (AID 2171);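 also: 0% = enzyme with DMSO and 100% = wells lacking PME-1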
Conditions: recombinant PME-1, FP-Rh probe fluorescence polarization; at 5.9 µM; active compounds read high
Response key: 1 (yes) means inhibition >= 50%; 0 (no) means inhibition < 50%.

Take a look at these entries with their results.
CCC(=O)c1cn(Cc2ccccc2C#N)c2ccccc12; 0 (no)
Cc1cc(Br)c(NC(=O)CN2CC=C(c3ccccc3)CC2)c(Br)c1; 0 (no)
NP(=O)(OCCCc1ccccc1)Oc1ccccc1Cl (stereo not drawn); 1 (yes)
O=c1[nH]c(=S)[nH]c(O)c1N=Nc1ccc(S(=O)(=O)N2CCc3ccccc32)cc1; 0 (no)
CCOC(=O)c1c(NS(=O)(=O)c2ccccc2)n(CCCOC)c2nc3ccccc3nc12; 0 (no)

Q: // inclusive: inhibition at least 50%? input: O=c1c2ccccc2nc(/C=C/c2ccc(O)c(O)c2)n1-c1ccccc1
A: 0 (no)

Q: In plain terms: is recorded inhibition at least 50% for O=P(Oc1ccccc1)(Oc1ccccc1)C(O)c1ccccc1 (stereo not drawn) ?
A: 1 (yes)

Q: Check if inhibition >= 50% (inclusive). Item: O=P(CCl)(Nc1ccccc1)C(Cl)(Cl)Cl (stereo not drawn)
A: 0 (no)

====

Molecular target: Nuclear receptor coactivator 3 (Homo sapiens)
Assay: SRC3 coactivator transcriptional activity inhibitors, confirmation, cell-based, luminescence, quadruplicate (AID 588792);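 also: 0% = DMSO treated cells and 100% = gossypol at 36 µM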
Settings: HEK293 GAL4-SRC3 luciferase reporter, at 3.6 µM, active compounds read high
measurementName: inhibition (%)
Answer format: numeric, % implied, no suffix.

CC(C)[C@H]1C(=O)O[C@H](C(C)C)C(=O)N(C)[C@@H](C(C)C)C(=O)O[C@H](C(C)C)C(=O)N(C)[C@@H](C(C)C)C(=O)O[C@H](C(C)C)C(=O)N1C; 75
O=c1[nH]c2ccccc2n1C1CCN(C(CCc2ccccc2)c2nnnn2-c2ccc3c(c2)OCCO3)CC1 (configuration not stated); 30.3
C=C1C(=O)O[C@@H]2C[C@@H](C)[C@@H]3C=CC(=O)[C@@]3(C)[C@@H](O)[C@H]12; 42.1
CC[C@@]1(O)C(=O)OCc2c1cc1n(c2=O)Cc2cc3c(NC(=O)CN)cccc3nc2-1; 61.8
C[C@H]1C[C@@H](C)C(=O)[C@@H]([C@H](O)CC2CC(=O)NC(=O)C2)C1; 96.7

Q: # value lookup — system Nuclear receptor coactivator 3 (Homo sapiens), readout inhibition, item C[C@H]1CCC/C=C/C2C[C@H](O)CC2[C@H](O)/C=C/C(=O)O1 (some centres not stated)
A: 69.2

Q: # returns recorded inhibition (system: Nuclear receptor coactivator 3 (Homo sapiens)) for CC(=C1C(=O)c2ccccc2C1=O)N1CCN(CCN=Cc2c(O)n(C)c(=O)n(C)c2=O)CC1
A: -8.5

Q: Find inhibition (Nuclear receptor coactivator 3 (Homo sapiens)) for the entry C[C@]12CC[C@H](O)C[C@H]1CC[C@@H]1[C@@H]2C[C@@H](O)[C@]2(C)[C@@H](C3=CC(=O)OC3)CC[C@]12O
A: 88.8

Q: Entry COC1=CC2C3Cc4ccc(OC)c(O)c4C2(CCN3C)CC1=O (configuration not stated) , system Nuclear receptor coactivator 3 (Homo sapiens): what inhibition was measured?
A: 7

====

Target: Nuclear receptor coactivator 2 (Homo sapiens)
Experiment: SRC2 coactivator transcriptional activity inhibitors, confirmation, cell-based, luminescence, HEK293, triplicate (AID 652008);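 also: 0% = DMSO-treated cells and 100% = Gossypol at 36 µM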
Details: HEK293 GAL4-SRC2 luciferase reporter, at 8.9 µM, active compounds read high
Classification field. Basis: inhibition. Definitions: class 0 (below 20%), class 1 (20% to below 50%), class 2 (50% or more)

Q: Band for the recorded inhibition of CCOP(=O)(OCC)C1(O)C(=O)Nc2ccc(Br)cc21 (stereo not given) ?
A: class 0

Q: Given COC(=O)C1=C(c2ccc(-c3ccccc3)c(F)c2)C[C@@H]2CC[C@H]1N2C(=O)N1CCCCC1 , name the class its inhibition places it in.
A: class 1

====

Molecular target: Steroidogenic factor 1 (Homo sapiens) (UniProt Q13285)
Sequence (Q13285 whole entry, looked up): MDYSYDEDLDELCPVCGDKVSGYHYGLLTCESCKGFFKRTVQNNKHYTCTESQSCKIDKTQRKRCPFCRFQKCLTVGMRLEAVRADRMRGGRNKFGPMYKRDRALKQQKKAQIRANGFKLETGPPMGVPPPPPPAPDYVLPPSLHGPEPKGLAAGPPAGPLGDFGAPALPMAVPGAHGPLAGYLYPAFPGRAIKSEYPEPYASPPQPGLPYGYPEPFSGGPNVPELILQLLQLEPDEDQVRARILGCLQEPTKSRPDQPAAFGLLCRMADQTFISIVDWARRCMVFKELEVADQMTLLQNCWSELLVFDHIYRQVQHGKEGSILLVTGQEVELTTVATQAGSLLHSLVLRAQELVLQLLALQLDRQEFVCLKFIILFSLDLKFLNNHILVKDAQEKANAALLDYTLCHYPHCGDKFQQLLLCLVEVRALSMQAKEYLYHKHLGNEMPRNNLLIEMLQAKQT
Assay: SF1 (NR5A1) inverse agonists, counter-screen for LRH-1 inverse agonist project, cell-based, luminescence, high throughput (AID 651614);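 also: cells cotransfected with StAR promoter reporter and SF1 expression vector; 0% = vehicle on cells with receptor and 100% = vehicle on cells lacking receptor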
Settings: cell-based SF1 luciferase reporter, at 3.6 µM, active compounds read high
measurementName: inhibition (%)
Please respond with the number in % and leave the unit unwritten.

Below: 2 compounds and their reported inhibition.
Cn1cc(NC(=O)CCl)cn1; 61.2
CCOC(=O)[C@]12Cc3ccccc3[C@H]1N(C1CCCCC1)C(=O)c1cc(OC)ccc12; 58.9

Q: Suppose we examine the compound Cc1ccc(-n2nc(C)cc2NC(=O)COc2cc(C)cc3oc(=O)c4c(c23)CCC4)cc1 ; what inhibition value has been reported?
A: 61.2

====

Assay: VP16 transactivation reporter inhibitors, counter-screen for LRH-1 inverse agonist project, cell-based, luminescence, high throughput (AID 651615)
Conditions: Gal4-VP16 luciferase reporter cells, at 3.6 µM, active compounds read high
measurementName: inhibition (%)
Note: unit % is implicit; provide only the numeric part.

A selection of reference data follows.
CC(=O)c1cn(Cc2ccccc2C#N)c2ccccc12; 55.5
CC(C)(C)c1ccc(CSc2cnn(C(C)(C)C)c(=O)c2Cl)cc1; 57.7
COc1ccc(-n2nnnc2C(CCc2ccccc2)N2CCC(n3c(=O)[nH]c4ccccc43)CC2)cc1 (centres undefined); 33.6
C[C@@H]1O[C@@H](O[C@@H]2C=C3CCC4C(CC[C@]5(C)[C@@H](c6ccc(=O)oc6)CC[C@]45O)[C@@]3(C)CC2)[C@H](O)[C@H](O)[C@H]1O (some centres undefined); 96.5
CC(=O)OC1CC2(O)C3CCC4CC(O)CCC4(C)C3CCC2(C)C1C1=CC(=O)OC1 (centres undefined); 91.9

Q: Returns the measured inhibition for the input compound. Input: COC1=C(C)C(=O)C2=C(C1=O)C(CO)N1C(C#N)C3CC4C(C1C2N1CCOC41)N3C (centres undefined)
A: 95.3

Q: Any idea what its inhibition is? The compound is CC[n+]1c(-c2ccccc2)c2cc(N)ccc2c2ccc(N)cc21
A: 84.8

Q: Which measured inhibition value corresponds to COC(=O)C[C@]1(C(=O)OC)CN(C#N)N(c2ccc(Cl)cc2)C12c1ccccc1-c1ccccc12 ?
A: 69.2

Q: What does the data say about its inhibition? Entry: Cc1ccc(-c2cc(-c3ccc(C)cc3)[n+](C)o2)cc1
A: 67.3

====

Target: Steroidogenic factor 1 (Homo sapiens) (UniProt Q13285)
Experiment: SF1 (NR5A1) inverse agonists, counter-screen for LRH-1 inverse agonist project, cell-based, luminescence, high throughput (AID 651614);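 also: cells cotransfected with StAR promoter reporter and SF1 expression vector; 0% = vehicle on cells with receptor and 100% = vehicle on cells lacking receptor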
Details: cell-based SF1 luciferase reporter, at 3.6 µM, active compounds read high
Reported inhibition values are given for each entry in this list.
Kindly provide the numeric value in % only, without the unit symbol.

Answered cases to consult:
CC(C)CC(NC(=O)CCCNC(=O)CCC(=O)OC1O[C@H]2OC3(C)CC[C@H]4[C@H](C)CCC(C1C)C24OO3)C(=O)O (stereo partly specified); 91
CC1CC(C)CC(C)C(O)C(C#N)=CC=CCC(C2CCCC2C(=O)O)OC(=O)CC(O)C(C)C1 (stereo unspecified); 97.9

Q: // returns reported inhibition for input CN(C)c1ccc(/C=C/C=C/c2sc3ccccc3[n+]2C)cc1
A: 63

Q: Which value of inhibition has been reported for c1ccc2c(c1)[IH]c1ccccc1-2 in the records?
A: 64.1

Q: Consider the compound shown here: C=C1C(=O)O[C@@H]2C[C@@H](C)[C@@H]3C4OC4C(=O)[C@@]3(C)[C@@H](O)[C@H]12 (stereo partly specified) What is its recorded inhibition?
A: 67.9

Q: Reported inhibition, compound N#Cc1c(Br)n(C2OC(CO)C(O)C2O)c2ncnc(N)c12 (stereo unspecified) : ____
A: 63.2

Q: Given CC(=O)OC1C(O)C(C)OC(OC2C(OC(=O)C3CCC4C(C3)OC3(CC(OC(=O)/C=C/c5ccccc5)C(C)CO3)C43CO3)OC(C)C(O)C2OC(C)=O)C1O (stereo unspecified) , state its recorded inhibition.
A: 97.5

Q: Requested read-out: inhibition. Entry: CCOC(=O)[C@]12Cc3cc(C)ccc3[C@H]1N(C1CCCCC1)C(=O)c1ccccc12
A: 71.5

Q: Could you tell me which inhibition is on file for O=c1[nH]c2ccccc2n1C1CCN(C(c2cccc3ccccc23)c2nnnn2-c2ccc3c(c2)OCCO3)CC1 (stereo unspecified) ?
A: 44

Q: Need inhibition of CCC(C)(O)C(=O)OC1C(=O)OC2CC3C(C)=CC(O)C(O)C3(C)C3C4(O)OCC23C1C(C)C4O (stereo unspecified) , thanks.
A: 92.4
